Consider the following compounds; for each one, report its residual activity.
tgt: STK17A (human)
test-description: radiometric filter-binding kinase assay, Kinase HotSpot
condition-set: compound 0.5 µM; ATP 10 µM
Answer shape: numeric part, then the unit.

# residual activity (compound: CC(C)[C@H](CO)Nc1nc(Nc2cc(N)cc(Cl)c2)c2ncn(C(C)C)c2n1 ) is 96.3%

Record Oc1ccc(Nc2nc(-c3ccc(Cl)cc3)cs2)cc1 , field residual activity: 98.7%

Consider CC(C)c1nn(-c2c(Cl)cccc2Cl)c2nc(Cc3ccc(OCCO)cc3)nc(O)c12 . Its measured residual activity is 98.3%

The compound identified as O=C1Nc2ccccc2/C1=C1\Nc2ccccc2\C1=N/O registered its residual activity at 46%

Field residual activity (entry Nc1nnc2[nH]c3ccccc3nc1-2 ) reads 95.2%

O=C(O)/C=C/c1cc(Br)c(Br)c(Br)c1Br has a reported residual activity of 84.6%

residual activity reported for this compound COc1cc2ncnc(N3CCN(C(=O)Nc4ccc(Oc5ccccc5)cc4)CC3)c2cc1OC : 85.5%

Given item CCn1cnc2c(Nc3cccc(Cl)c3)nc(N[C@@H]3CCCC[C@@H]3N)nc21 , the value recorded as its residual activity is 98.4%

Lookup result for CN([C@@H](Cc1ccc(OS(=O)(=O)c2cccc3cnccc23)cc1)C(=O)N1CCN(c2ccccc2)CC1)S(=O)(=O)c1cccc2cnccc12 ; measured residual activity: 104%

GET /value?item= O=C1NC(=O)/C(=C\c2ccc3nccnc3c2)S1 &field=residual activity returns 94.6%

---

Provide the reported residual activity of each item.
tgt: TSSK1B (human)
test-description: radiometric filter-binding kinase assay, Kinase HotSpot
condition-set: compound 0.5 µM; ATP 10 µM
Your answer is read as %, so omit the unit and give the number.

residual activity reported for this compound CN(C)C[C@H]1CCn2c(c(C3=C(c4cn(C)c5ccccc45)C(=O)NC3=O)c3ccccc32)C1 : 104

Looking up Cn1sc(=O)n(Cc2ccccc2)c1=O , I found its residual activity recorded as 94.4

The recorded residual activity for CC(C)c1nn(-c2c(Cl)cccc2Cl)c2nc(Cc3ccc(OCCO)cc3)nc(O)c12 is 104

get_value(item= O=C1Nc2ccccc2/C1=C1\Nc2ccccc2\C1=N/O , readout=residual activity) returns 86

Per the record, O=C1Nc2ccccc2/C1=C1/Nc2ccccc2/C1=N\OCCC(O)CO (stereo not given) has residual activity of 76.6

The compound listed as COc1ccc(OC)c2c(=S)c3ccccc3[nH]c12 shows residual activity equal to 114

So for O=C(CCCc1ccc(-c2ccccc2F)cc1)Nc1ccc(O)cc1 , the logged residual activity turned out to be 107

Given item O=C(O)/C=C/c1cc(Br)c(Br)c(Br)c1Br , the value recorded as its residual activity is 79.2

Entry CN([C@@H](Cc1ccc(OS(=O)(=O)c2cccc3cnccc23)cc1)C(=O)N1CCN(c2ccccc2)CC1)S(=O)(=O)c1cccc2cnccc12 , residual activity reported as 95.4

// residual activity value for Cc1nc2cc3nc(-c4cccs4)cnc3cc2n1C : 91.3

---

tgt: CDK4 CCND1 (human) (UniProt P24385+P11802)
Sequence (P11802 whole entry, looked up): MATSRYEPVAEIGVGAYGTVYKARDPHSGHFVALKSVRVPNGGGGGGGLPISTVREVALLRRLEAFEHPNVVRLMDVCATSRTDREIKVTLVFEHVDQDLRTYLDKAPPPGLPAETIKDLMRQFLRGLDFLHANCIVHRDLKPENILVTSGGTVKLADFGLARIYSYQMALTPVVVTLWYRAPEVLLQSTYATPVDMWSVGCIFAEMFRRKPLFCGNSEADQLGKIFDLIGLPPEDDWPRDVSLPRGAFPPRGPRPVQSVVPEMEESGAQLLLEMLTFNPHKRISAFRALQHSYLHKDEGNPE
Sequence (P24385 whole entry, looked up): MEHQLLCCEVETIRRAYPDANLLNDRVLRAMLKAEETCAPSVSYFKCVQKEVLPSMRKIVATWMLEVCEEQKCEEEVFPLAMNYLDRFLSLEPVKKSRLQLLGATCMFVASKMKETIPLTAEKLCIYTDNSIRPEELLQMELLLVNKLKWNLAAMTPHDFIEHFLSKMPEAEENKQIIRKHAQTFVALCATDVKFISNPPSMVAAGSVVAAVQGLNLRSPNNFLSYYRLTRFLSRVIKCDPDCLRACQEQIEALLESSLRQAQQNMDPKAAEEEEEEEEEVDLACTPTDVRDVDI
test-description: radiometric filter-binding kinase assay, Kinase HotSpot
condition-set: compound 0.5 µM; ATP 10 µM
Consider the following molecules; for each one, report its residual activity.
All answers are understood in %, so give the number only.

// recorded residual activity for Cn1nc2c3c(cccc31)C(=O)c1ccccc1-2 : 98.9

// residual activity lookup, molecule = COc1cc2ncc(-c3ccccc3)nc2cc1OC , result: 103

Recorded result, COc1ccc(CNC(=O)Nc2ncc([N+](=O)[O-])s2)cc1 , residual activity: 97.3

// field: residual activity; key: Nc1nnc2[nH]c3ccccc3nc1-2 ; value = 92.4

What the record says about Cn1cnc2cc3c(Nc4cccc(Br)c4)ncnc3cc21 : residual activity is 84

Just so you know, measured residual activity for O=C1Nc2ccccc2/C1=C1/Nc2ccccc2/C1=N\OCCC(O)CO (stereo not drawn) came out at 96.4

The reported residual activity of the molecule CC(C)c1nn(-c2c(Cl)cccc2Cl)c2nc(Cc3ccc(OCCO)cc3)nc(O)c12 was 86.8

Sample CCn1cnc2c(Nc3cccc(Cl)c3)nc(N[C@@H]3CCCC[C@@H]3N)nc21 ; residual activity observed: 89.9

The reported value for CC(=O)O/N=C1\C(=C2\C(=O)Nc3cc(Br)ccc32)Nc2ccccc21 in terms of residual activity is 73.3

Recorded residual activity (molecule CN(C)C[C@H]1CCn2c(c(C3=C(c4cn(C)c5ccccc45)C(=O)NC3=O)c3ccccc32)C1 ): 86.9

Sure, the documented residual activity for COc1cc2ncnc(N3CCN(C(=O)Nc4ccc(Oc5ccccc5)cc4)CC3)c2cc1OC is 101

Please fill in: residual activity reported for COc1ccc(OC)c2c(=S)c3ccccc3[nH]c12 = 93.5

Form: molecule = c1cc(-c2cnn3cc(-c4ccc(OCCN5CCCCC5)cc4)cnc23)ccn1 ; residual activity = 35.3

Lookup result for O=C1NC(=O)C(c2cn(CCCO)c3ncccc23)=C1c1cnccn1 ; measured residual activity: 89.5

Lab note: measured residual activity of CN([C@@H](Cc1ccc(OS(=O)(=O)c2cccc3cnccc23)cc1)C(=O)N1CCN(c2ccccc2)CC1)S(=O)(=O)c1cccc2cnccc12 was 95.3

Entry Oc1ccc(Nc2nc(-c3ccc(Cl)cc3)cs2)cc1 — recorded residual activity = 108

So for O=C(Nc1cccc(Nc2cc(Nc3cccc(C(F)(F)F)c3)ncn2)c1)C1CC1 , the logged residual activity turned out to be 103

Form: molecule = O=C1NC(=O)C(c2c[nH]c3ccccc23)=C1c1c[nH]c2ccccc12 ; residual activity = 97.4

residual activity recorded for this molecule, O=C1Cc2c([nH]c3ccc(Br)cc23)-c2ccccc2N1 , is 84

Record Cc1ccc(NC(=O)c2ccc(CN3CCN(C)CC3)cc2)cc1Nc1nccc(-c2cccnc2)n1 , field residual activity: 97.5

Input O=C(O)/C=C/c1cc(Br)c(Br)c(Br)c1Br . Output residual activity: 89.3

Entry Cn1sc(=O)n(Cc2ccccc2)c1=O — recorded residual activity = 98.2

Memo: CCN(CC)CCCCN1c2ccccc2Oc2ccc(Cl)cc21 , reported residual activity: 107

Just so you know, measured residual activity for O=C1NC(=O)/C(=C\c2ccc3nccnc3c2)S1 came out at 94.4

Data point: Nc1nccc(-c2c(-c3ccc(F)cc3)ncn2C2CCNCC2)n1 ; residual activity = 99.9

Entry Cc1nc2cc3nc(-c4cccs4)cnc3cc2n1C ; residual activity = 108

Entry O=C1Nc2ccccc2/C1=C1\Nc2ccccc2\C1=N/O , residual activity reported as 70.9

For O=C(CCCc1ccc(-c2ccccc2F)cc1)Nc1ccc(O)cc1 the molecule record lists residual activity as 102

---

tgt: IRAK4 (human) (UniProt Q9NWZ3)
Sequence (Q9NWZ3 whole entry, looked up): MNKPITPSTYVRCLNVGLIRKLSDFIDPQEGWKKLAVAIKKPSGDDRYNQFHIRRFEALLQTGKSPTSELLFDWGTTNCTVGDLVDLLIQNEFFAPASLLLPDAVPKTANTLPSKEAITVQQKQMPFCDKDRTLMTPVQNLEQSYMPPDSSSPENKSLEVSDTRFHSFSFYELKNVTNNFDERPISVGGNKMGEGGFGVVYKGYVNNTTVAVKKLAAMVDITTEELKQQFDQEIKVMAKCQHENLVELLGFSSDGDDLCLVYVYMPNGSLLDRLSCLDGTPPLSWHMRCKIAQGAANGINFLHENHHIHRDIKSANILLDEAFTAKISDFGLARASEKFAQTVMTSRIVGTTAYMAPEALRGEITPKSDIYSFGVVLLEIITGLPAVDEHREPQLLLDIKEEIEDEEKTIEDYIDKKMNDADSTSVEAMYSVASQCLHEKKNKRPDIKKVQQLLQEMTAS
test-description: radiometric filter-binding kinase assay, Kinase HotSpot
condition-set: compound 0.5 µM; ATP 10 µM
Hi there, I'd appreciate the recorded residual activity for every entry that follows.
Entry rule: numbers only, all in %.

Case Cc1nc2cc3nc(-c4cccs4)cnc3cc2n1C , IRAK4 (human) (UniProt Q9NWZ3), residual activity recorded as 201

Noted residual activity for O=C1NC(=O)C(c2c[nH]c3ccccc23)=C1c1c[nH]c2ccccc12 , tested on IRAK4 (human) (UniProt Q9NWZ3): 92

Short answer on IRAK4 (human) (UniProt Q9NWZ3) for CN(C)C[C@H]1CCn2c(c(C3=C(c4cn(C)c5ccccc45)C(=O)NC3=O)c3ccccc32)C1 , residual activity: 107

Hey, IRAK4 (human) (UniProt Q9NWZ3) data for O=C(O)/C=C/c1cc(Br)c(Br)c(Br)c1Br : residual activity came out at 86.6

---

tgt: FGFR1 (human)
test-description: radiometric filter-binding kinase assay, Kinase HotSpot
condition-set: compound 0.5 µM; ATP 10 µM
readout-label: residual activity (%)
Value expressed in %; do not type the unit.

Record COc1ccc(OC)c2c(=S)c3ccccc3[nH]c12 , field residual activity: 89.6

Just so you know, measured residual activity for Cn1nc2c3c(cccc31)C(=O)c1ccccc1-2 came out at 99.5

So for COc1cc2ncnc(N3CCN(C(=O)Nc4ccc(Oc5ccccc5)cc4)CC3)c2cc1OC , the logged residual activity turned out to be 89.6

Query Cc1nc2cc3nc(-c4cccs4)cnc3cc2n1C yields residual activity of 88.8

Entry O=C1NC(=O)C(c2cn(CCCO)c3ncccc23)=C1c1cnccn1 ; residual activity = 81.2

Entry O=C1Cc2c([nH]c3ccc(Br)cc23)-c2ccccc2N1 — recorded residual activity = 99.4

For record O=C1NC(=O)/C(=C\c2ccc3nccnc3c2)S1 the listed residual activity is 88.5

The compound listed as Oc1ccc(Nc2nc(-c3ccc(Cl)cc3)cs2)cc1 shows residual activity equal to 82.5

Consider O=C(Nc1cccc(Nc2cc(Nc3cccc(C(F)(F)F)c3)ncn2)c1)C1CC1 . Its measured residual activity is 103

So, Nc1nnc2[nH]c3ccccc3nc1-2 ? Its residual activity was 93.9

So for COc1ccc(CNC(=O)Nc2ncc([N+](=O)[O-])s2)cc1 , the logged residual activity turned out to be 98.9

The reported value for O=C(O)/C=C/c1cc(Br)c(Br)c(Br)c1Br in terms of residual activity is 95.2
